Where these numbers come from: patent US20180339041A1

Recorded kon for the following binders
# TARGET ENTITY: T1, C-terminally FLAG-tagged human Gas6 recombinant protein (hGas6-F) (human, UniProt Q14393 31-678, gamma-carboxylated glutamic acid residues in the Gla domain (producer cells co-express rat VKOR and human GGCX); positions not given)
# T1 construct: also called human Gas6-F; human Gas6 protein
# T1 sequence: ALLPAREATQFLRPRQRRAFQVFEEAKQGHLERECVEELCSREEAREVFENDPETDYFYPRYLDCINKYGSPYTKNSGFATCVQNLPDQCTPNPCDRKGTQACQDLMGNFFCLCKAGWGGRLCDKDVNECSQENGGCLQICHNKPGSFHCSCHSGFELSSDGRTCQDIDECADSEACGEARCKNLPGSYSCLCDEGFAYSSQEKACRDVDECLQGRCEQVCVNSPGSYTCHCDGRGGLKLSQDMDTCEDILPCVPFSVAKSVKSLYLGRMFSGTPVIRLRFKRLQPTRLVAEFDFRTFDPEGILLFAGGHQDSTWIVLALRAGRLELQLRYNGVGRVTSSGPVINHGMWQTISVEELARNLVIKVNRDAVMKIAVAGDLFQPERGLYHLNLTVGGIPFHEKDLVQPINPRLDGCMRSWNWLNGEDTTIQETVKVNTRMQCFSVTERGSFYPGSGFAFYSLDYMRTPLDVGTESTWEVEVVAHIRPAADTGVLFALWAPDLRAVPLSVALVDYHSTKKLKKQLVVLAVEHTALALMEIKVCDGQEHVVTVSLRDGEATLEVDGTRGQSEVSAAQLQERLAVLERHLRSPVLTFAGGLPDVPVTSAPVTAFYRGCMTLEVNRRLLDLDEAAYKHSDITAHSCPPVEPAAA
# ASSAY: SPR Biacore T100, captured antibody, Gas6 analyte, first test

Completed entries (count: 4):
- hzKM5321 LV4HV7 antibody (antibody, V domains shown, Humanized; variant human IgG4 constant region (EU S228P, L235E, R409K), human kappa; also called B-17; LV4HV7) VH: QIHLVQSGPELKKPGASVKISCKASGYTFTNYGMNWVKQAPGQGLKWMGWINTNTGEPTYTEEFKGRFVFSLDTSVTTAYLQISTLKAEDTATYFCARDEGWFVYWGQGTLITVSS VL: ETTLTQSPSSLSVSTGDRVTITCITSTDIDDDMNWYQQKPGKAPKLLISEGNTLRPGVPSRFSGSGSGTDFTFTISSTQPEDFATYYCLQTDSVPLTFGQGTKVEIK: > 100000 M⁻¹ s⁻¹
- KM5321 chimeric antibody (antibody, V domains shown, also called KM5321 chimera; B-01) VH: QIQLVQSGPELKKPGETVKISCRASGYTFTNYGMNWVKQAPGKGLKWMGWINTNTGEPTYTEEFKGRFAFSLETSATTAYLQINDLKNEDTATYFCARDEGWFVYWGQGTLITVSA VL: ETTVTQSPASLSVATGEKVTIRCITSTDIDDDMNWYQQKPGEPPKLLISEGNTLRPGVPSRFSSSGYGTDFVFTIENTLSEDVADYYCLQTDSVPLTFGAGTKLELK: > 121000 M⁻¹ s⁻¹
- hzKM5321 LV7aHV7 antibody (antibody, V domains shown, Humanized; variant human IgG4 constant region (EU S228P, L235E, R409K), human kappa; also called B-19; LV7aHV7) VH: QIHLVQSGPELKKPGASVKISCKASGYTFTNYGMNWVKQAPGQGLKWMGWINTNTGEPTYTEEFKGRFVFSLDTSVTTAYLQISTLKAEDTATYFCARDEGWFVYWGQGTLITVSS VL: ETTLTQSPSSLSVSTGDRVTITCITSTDIDDDMNWYQQKPGKPPKLLISEGNTLRPGVPSRFSSSGSGTDFTFTISSTQPEDFADYYCLQTDSVPLTFGQGTKVEIK: > 103000 M⁻¹ s⁻¹
- KM5320 chimeric antibody (antibody, V domains shown, also called KM5320 chimera; A-01) VH: QIQLVQSGPELKKPGETVKISCKASGYTFTNYGMNWVKQAPGKGLKWMGWINTETGEPTYSDDFKGRFAFSLETSATTAYLQINNLRNEDMATYFCAREDGYYGTLDYWGQGTSVTVSS VL: SIVMTQTPKFLLVSAGDRVTITCKASQSVSNDVAWYQQKPGQSPKVLIYYASNRYTGVPDRFTGSGYGTDFTFTISTVQAEDLAVYFCQQDYSSPWTFGGGTKLEIK: > 83700 M⁻¹ s⁻¹

Now for a further binder.
Please fill in: kon reported for hzKM5321 LV1cHV0 antibody (antibody, V domains shown, Humanized; variant human IgG4 constant region (EU S228P, L235E, R409K), human kappa; also called B-05; LV1cHV0) VH: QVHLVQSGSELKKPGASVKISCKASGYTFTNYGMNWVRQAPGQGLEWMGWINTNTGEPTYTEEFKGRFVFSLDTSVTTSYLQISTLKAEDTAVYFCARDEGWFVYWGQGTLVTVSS VL: ETTLTQSPSSLSVSVGDRVTITCITSTDIDDDMNWYQQKPGKAPKLLISEGNTLRPGVPSRFSGSGSGTDFTLTISSLQPEDFATYYCLQTDSVPLTFGQGTKVEIK = > 126000 M⁻¹ s⁻¹
